The reader will find reported IC50 values listed item by item below.
target: beta-catenin/TCF4 engagement (Homo sapiens, UniProt P35222); construct: expressed in transfected cells; host or cells: HEK293; assay: Nano-BRET target engagement assay (B-cat-Halo & TCF4-Luc in HEK293 cells); format: cell-based; conditions: absolute IC50; read-out: NanoBRET Abs IC50

1) COC(=O)C[C@@H]1NC(=O)C2(CCCC=CCCCOC(=O)N3CC[C@@](C(=O)N[C@@H](Cc4ccsc4)C(=O)N[C@@H](Cc4csc5ccccc45)C(=O)N[C@@H](CCC(N)=O)C(N)=O)(C3)NC(=O)[C@H](CC(C)C)NC(=O)[C@H](Cc3ccccc3)NC(=O)[C@H](C)NC(=O)[C@H](C)NC(=O)[C@H](CC(=O)O)NC1=O)CCCC=CC[C@]1(CCCN1C(C)=O)C(=O)N[C@@H](CC(=O)O)C(=O)N[C@@H](CC(C)(C)C)C(=O)N2 (some centres unmarked) [I-2360] ... > 20 µM

Query :: Quote IC50 reported for COCCOCCC(=O)N1CCC[C@]12CC=CCCCC1(CCCC=CCCCCCC[C@@](C)(C(=O)N[C@@H](Cc3ccccc3Cl)C(=O)N[C@@H](Cc3csc4ccccc34)C(=O)N[C@@H](CCC(N)=O)C(N)=O)NC(=O)[C@H]([C@@H](C)O)NC(=O)[C@H](Cc3ccccc3)NC(=O)[C@H](C)NC(=O)[C@H](C)NC(=O)[C@H](CC(=O)O)NC(=O)[C@H](CC(=O)O)NC1=O)NC(=O)[C@H](CC(C)(C)C)NC(=O)[C@H](CC(=O)O)NC2=O (some centres unmarked) [I-1255] please.
Result :: > 20 µM

---

assay: CHI Log D procedure; assay type: physicochemical; conditions: pH 7.4, CHI Log D
Record Satisfied whenever chromatographic logD is at 2 or higher; record Not satisfied when lower.

// known answers, use as guide
1) COc1ccccc1C[C@H](NC(=O)[C@]12CCN(C1)C(=O)OCCCC=CCCCC1(CCCC=CC[C@]3(CCCN3C(C)=O)C(=O)N[C@@H](CC(=O)O)C(=O)N[C@@H](CC(C)(C)C)C(=O)N1)C(=O)N[C@@H](CC(=O)O)C(=O)N[C@@H](CC(=O)O)C(=O)N[C@@H](C)C(=O)N[C@@H](C)C(=O)N[C@@H](Cc1ccccc1)C(=O)N[C@@H](CO)C(=O)N2)C(=O)N[C@@H](Cc1csc2ccccc12)C(=O)N[C@@H](CO)C(N)=O (some centres unmarked) ... Satisfied
2) CC[C@H](C)[C@H](NC(=O)[C@H](CC(=O)O)NC(=O)[C@H](C)NC(C)=O)C(=O)N[C@]1(C)CCN(C)C(=O)OCC=CCCCCC[C@@](C)(C(=O)N[C@@H](Cc2ccccc2)C(=O)N[C@@H](Cc2c[nH]c3ccccc23)C(N)=O)NC(=O)[C@H](CCC(N)=O)NC(=O)[C@H](Cc2ccccc2)NC(=O)[C@H](C)NC(=O)[C@H](C)NC(=O)[C@H](CCC(=O)O)NC(=O)[C@H](CC(=O)O)NC1=O ... Not satisfied
3) CC(=O)N1CCC[C@]12CC=CCCCC1(CCCC=CCCCCCC[C@@](C)(C(=O)N[C@@H](Cc3ccccc3Cl)C(=O)N[C@@H](Cc3csc4ccccc34)C(=O)N[C@@H](CCC(N)=O)C(N)=O)NC(=O)[C@H](CC(C)C)NC(=O)[C@H](Cc3ccccc3)NC(=O)[C@H](C)NC(=O)[C@H](C)NC(=O)[C@H](CC(=O)O)NC(=O)[C@H](CC(=O)O)NC1=O)NC(=O)[C@H](CC(C)(C)C)NC(=O)[C@H](CC(=O)O)NC2=O (some centres unmarked) ... Satisfied
4) CC[C@H](C)[C@@H]1NC(=O)[C@H](C)NC(=O)[C@H](CN(CC(=O)O)CC(F)(F)F)NC(=O)[C@H](CC(=O)O)NC(=O)C2(CCCC=CCCCOC(=O)N3CC[C@@](C(=O)N[C@@H](Cc4ccccc4Cl)C(=O)N[C@@H](Cc4csc5ccccc45)C(=O)N[C@@H](CCC(N)=O)C(N)=O)(C3)NC(=O)[C@H](CC(N)=O)NC(=O)[C@H](Cc3ccccc3)NC1=O)CCCC=CC[C@]1(CCCN1C(C)=O)C(=O)N[C@@H](CC(=O)O)C(=O)N[C@@H](CC(C)(C)C)C(=O)N2 (some centres unmarked) ... Satisfied

Query :: // inclusive: chromatographic logD at least 2? input: CC(=O)N1CCC[C@]12CC=CCCCC1(CCCC=CCCCOC(=O)N3CC[C@@](C(=O)N[C@@H](Cc4ccccc4Cl)C(=O)N[C@@H](Cc4csc5ccccc45)C(=O)N[C@@H](C(N)=O)[C@H](C)O)(C3)NC(=O)[C@H](CO)NC(=O)[C@H](Cc3ccccc3)NC(=O)[C@H](C)NC(=O)[C@H](C)NC(=O)[C@H](CCC(=O)O)NC(=O)[C@H](CC(=O)O)NC1=O)NC(=O)[C@H](CC(C)(C)C)NC(=O)[C@H](CC(=O)O)NC2=O (some centres unmarked)
Result :: Satisfied

---

The reader will find reported pIC50 values listed item by item below.
Target: beta-catenin/TCF4 engagement (Homo sapiens)
Construct: expressed in transfected cells; host or cells: HEK293
Sequence (P35222 1-781): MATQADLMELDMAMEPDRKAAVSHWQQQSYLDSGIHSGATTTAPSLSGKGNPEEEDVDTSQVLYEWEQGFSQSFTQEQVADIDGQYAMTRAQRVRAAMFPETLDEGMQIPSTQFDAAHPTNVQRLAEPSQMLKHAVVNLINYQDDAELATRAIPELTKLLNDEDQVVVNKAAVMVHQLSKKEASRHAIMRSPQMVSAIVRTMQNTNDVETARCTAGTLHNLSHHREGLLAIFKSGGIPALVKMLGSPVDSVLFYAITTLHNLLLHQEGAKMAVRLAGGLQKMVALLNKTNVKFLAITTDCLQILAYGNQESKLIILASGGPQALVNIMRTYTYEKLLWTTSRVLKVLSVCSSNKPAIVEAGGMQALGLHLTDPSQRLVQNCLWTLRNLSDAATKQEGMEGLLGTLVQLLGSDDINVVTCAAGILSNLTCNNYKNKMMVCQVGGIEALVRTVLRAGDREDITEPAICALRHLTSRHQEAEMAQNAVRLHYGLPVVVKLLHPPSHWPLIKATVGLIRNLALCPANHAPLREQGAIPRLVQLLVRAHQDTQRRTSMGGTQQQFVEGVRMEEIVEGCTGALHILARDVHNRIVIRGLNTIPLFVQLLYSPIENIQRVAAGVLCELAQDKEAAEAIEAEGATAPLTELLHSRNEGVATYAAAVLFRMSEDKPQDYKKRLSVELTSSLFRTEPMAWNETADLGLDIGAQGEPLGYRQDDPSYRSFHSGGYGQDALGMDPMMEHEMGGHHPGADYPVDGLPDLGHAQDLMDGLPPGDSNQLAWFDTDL
Assay: Nano-BRET target engagement assay (B-cat-Halo & TCF4-Luc in HEK293 cells)
Type: cell-based
Details: read-out: NanoBRET Abs IC50
Answer as the number alone; pIC50 is minus log10 of concentration in mol/L.

1. CC(=O)N1CCC[C@]12CC=CCCCC1(CCCC=CCCCOC(=O)N3CC[C@@](C(=O)N[C@@H](Cc4ccccc4Cl)C(=O)N[C@@H](Cc4csc5ccccc45)C(=O)N[C@@H](CO)C(N)=O)(C3)NC(=O)[C@H](CO)NC(=O)[C@H](Cc3ccccc3)NC(=O)[C@H](C)NC(=O)[C@H](C)NC(=O)[C@H](Cc3cccc(C(=O)O)c3)NC(=O)[C@H](CC(=O)O)NC1=O)NC(=O)[C@H](CC(C)(C)C)NC(=O)[C@H](CC(=O)O)NC2=O (stereo partly drawn) ... 5.19

Query :: Fill in pIC50 for CC(=O)N1CCC[C@]12CC=CCCCC1(CCCC=CCCCOC(=O)N3CC[C@@](C(=O)N[C@@H](Cc4ccsc4)C(=O)N[C@@H](Cc4csc5ccccc45)C(=O)N[C@@H](CC(C)(C)C)C(N)=O)(C3)NC(=O)[C@H](CC(C)C)NC(=O)[C@H](Cc3ccccc3)NC(=O)[C@H](C)NC(=O)[C@H](CO)NC(=O)[C@H](Cc3cccc(C(=O)O)c3)NC(=O)[C@H](CC(=O)O)NC1=O)NC(=O)[C@H](CC(C)(C)C)NC(=O)[C@H](CC(=O)O)NC2=O (stereo partly drawn) tested with beta-catenin/TCF4 engagement (Homo sapiens).
Result :: 4.68

---

Target: beta-catenin/TCF4 engagement (Homo sapiens, UniProt P35222)
Construct: expressed in transfected cells; host or cells: HEK293
Sequence (P35222 1-781): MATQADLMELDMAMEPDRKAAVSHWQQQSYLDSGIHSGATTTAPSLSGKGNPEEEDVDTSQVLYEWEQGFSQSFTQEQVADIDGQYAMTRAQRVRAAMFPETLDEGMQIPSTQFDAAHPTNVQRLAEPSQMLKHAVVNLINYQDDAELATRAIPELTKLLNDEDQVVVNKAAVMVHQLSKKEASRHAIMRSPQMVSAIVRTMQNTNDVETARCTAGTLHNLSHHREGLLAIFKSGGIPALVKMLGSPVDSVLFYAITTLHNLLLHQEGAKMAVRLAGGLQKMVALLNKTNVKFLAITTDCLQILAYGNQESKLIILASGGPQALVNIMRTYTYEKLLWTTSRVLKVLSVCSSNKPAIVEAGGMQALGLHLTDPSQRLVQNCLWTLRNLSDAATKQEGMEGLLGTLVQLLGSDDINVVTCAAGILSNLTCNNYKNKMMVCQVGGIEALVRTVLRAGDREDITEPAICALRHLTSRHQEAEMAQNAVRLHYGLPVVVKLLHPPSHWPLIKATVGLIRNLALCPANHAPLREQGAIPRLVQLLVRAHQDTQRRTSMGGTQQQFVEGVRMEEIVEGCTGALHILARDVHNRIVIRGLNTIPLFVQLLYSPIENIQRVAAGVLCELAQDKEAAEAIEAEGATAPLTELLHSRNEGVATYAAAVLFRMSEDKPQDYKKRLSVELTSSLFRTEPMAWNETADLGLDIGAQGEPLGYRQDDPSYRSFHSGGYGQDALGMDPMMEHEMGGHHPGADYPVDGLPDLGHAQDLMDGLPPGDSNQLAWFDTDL
Assay: Nano-BRET target engagement assay (B-cat-Halo & TCF4-Luc in HEK293 cells)
Type: cell-based
Details: absolute IC50; read-out: NanoBRET Abs IC50
MEASURED_PROPERTY: pIC50
Answer as the number alone; pIC50 is minus log10 of concentration in mol/L.

// known answers, use as guide
1) CC[C@@H]1NC(=O)[C@H](CC(=O)O)NC(=O)[C@]2(CC=CCCCC3(CCCC=CCCCCCC[C@@](C)(C(=O)N[C@@H](Cc4ccccc4)C(=O)N[C@@H](Cc4csc5ccccc45)C(=O)N[C@@H](Cc4c[nH]cn4)C(N)=O)NC(=O)[C@H](CCC(N)=O)NC(=O)[C@H](Cc4ccccc4)NC(=O)[C@H](C)NC(=O)[C@H](C)NC(=O)[C@H](CCC(=O)O)NC(=O)[C@H](CC(=O)O)NC3=O)NC1=O)CCCN2C(C)=O (some centres unmarked) [I-571] ... 4.81
2) CC(=O)N1CCC[C@]12CC=CCCCC1(CCCC=CCCCCCC[C@@](C)(C(=O)N[C@@H](Cc3ccccc3Cl)C(=O)N[C@@H](Cc3csc4ccccc34)C(=O)N[C@H](CO)[C@@H](C)O)NC(=O)[C@H]([C@@H](C)O)NC(=O)[C@H](Cc3ccccc3)NC(=O)[C@H](C)NC(=O)[C@H](C)NC(=O)[C@H](CC(=O)O)NC(=O)[C@H](CC(=O)O)NC1=O)NC(=O)[C@H](CC(C)(C)C)NC(=O)[C@H](CC(=O)O)NC2=O (some centres unmarked) [I-1308] ... 4.92
3) CC(=O)N1CCC[C@]12CC=CCCCC1(CCCC=CCCCOC(=O)N3CC[C@@](C(=O)N[C@@H](Cc4ccsc4)C(=O)N[C@@H](Cc4csc5ccccc45)C(=O)N[C@@H](CCO)C(N)=O)(C3)NC(=O)[C@H](CC(C)C)NC(=O)[C@H](Cc3ccccc3)NC(=O)[C@H](C)NC(=O)[C@H](C)NC(=O)[C@H](CC(=O)O)NC(=O)[C@H](CC(=O)O)NC1=O)NC(=O)[C@H](Cc1ccccc1)NC(=O)[C@H](CC(=O)O)NC2=O (some centres unmarked) [I-1510] ... 4.50

Would you kindly look at the next entry?
Query :: Quote pIC50 reported for CC(=O)N1CCC[C@]12CC=CCCCC1(CCCC=CCCCCCC[C@@](C)(C(=O)N[C@@H](Cc3ccsc3)C(=O)N[C@@H](Cc3csc4ccccc34)C(=O)N[C@@H](CCC(N)=O)C(N)=O)NC(=O)[C@H](CC(N)=O)NC(=O)[C@H](Cc3ccccc3)NC(=O)[C@H](C)NC(=O)[C@H](C)NC(=O)[C@H](CC(=O)O)NC(=O)[C@H](CC(=O)O)NC1=O)NC(=O)[C@H](CC(C)C)NC(=O)[C@H](CC(=O)O)NC2=O (some centres unmarked) [I-681] please.
Result :: 4.60
